System: 817829-284-R-J1-PDC complex spheroid viability;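 also: spheroids exposed to compounds for 7 days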
protocol: Anticancer human tumor 817829-284-R-J1-PDC patient-derived colon adenocarcinoma cell line growth inhibition [POLQ]
reported_conditions: curve of first compound; second compound 0.0316 µM
value_type: IC50 (nM)
Form entry: value (nM) — number only.

[ask] What is its IC50 for 817829-284-R-J1-PDC complex spheroid viability? Entry: CC1COCCN1c1cc(C2(S(C)(=N)=O)CC2)nc(-c2ccnc3[nH]ccc23)n1 (stereo not given) + COC1C(OC(N)=O)C(O)C(Oc2ccc3c(O)c(NC(=O)c4ccc(O)c(CC=C(C)C)c4)c(=O)oc3c2C)OC1(C)C
[reply] 338

[ask] State its IC50 on 817829-284-R-J1-PDC complex spheroid viability: CNCc1ccc(-c2[nH]c3cc(F)cc4c3c2CCNC4=O)cc1 + COC1C(OC(N)=O)C(O)C(Oc2ccc3c(O)c(NC(=O)c4ccc(O)c(CC=C(C)C)c4)c(=O)oc3c2C)OC1(C)C
[reply] 6630

[ask] Please provide the recorded IC50 for COc1cc(C2c3cc4c(cc3C(OC3OC5COC(C)OC5C(O)C3O)C3COC(=O)C23)OCO4)cc(OC)c1O (stereo not given) + Nc1ccc(C#CCN(C(=O)Cc2ncc(C(F)(F)F)cc2C(F)(F)F)c2ccc(F)cc2)nn1 , tested on 817829-284-R-J1-PDC complex spheroid viability.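 Also: spheroids exposed to compounds for 7 days.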
[reply] 68.1
